PROPERTY_NAME: pKi
Scale explanation: pKi corresponds to minus log10 of a concentration expressed in moles per litre.

# pKi measured on 5-hydroxytryptamine receptor 2B (Homo sapiens, UniProt P41595) for item `NCCc1cn(S(=O)(=O)c2c(Cl)nc3sccn23)c2ccccc12` = 6.34

---

# ASSAY: Drug level in Sprague-Dawley rat brain at 3 mg/kg, ip after 4 hrs
# Assay type: ADME, organism-based
# Set-up: dose 3 mg/kg, route intraperitoneal
# SETUP_CONDITIONS: read-out: Drug uptake
PROPERTY_NAME: concentration at 4 h (ng/mL)
The figure you give is taken to be in ng/mL; do not add the unit.

Memo: `NCCc1cn(S(=O)(=O)c2c(Cl)nc3sccn23)c2ccccc12` , reported concentration at 4 h: 6
